Provide the reported T/C of each item.
Tested on: L1210 leukemia ip in BDF1 mice, survival T/C
Assay: NCI In Vivo Anticancer Drug Screen. Data for tumor model L1210 Leukemia (intraperitoneal) in B6D2F1 (BDF1) mice
Conditions: endpoint: mean survival time; dose: 300.0 mg/kg/injection; schedule: Q01DX001 (ip); vehicle: saline; higher = longer survival
Toxic doses and inconclusive results are not listed.

## Task What value of T/C has been reported for the following molecule? "Cc1[nH]nc(-c2cccnc2)c1N=NN(C)C"
## Result 111 % of control

## Task What value of T/C has been reported for the following molecule? "ClCc1c2ccccc2c(CCl)c2ccccc12"
## Result 109 % of control

## Task What value of T/C has been reported for the following molecule? "CCOC(=O)CCCN1CCC=C(C#N)C1"
## Result 107 % of control

## Task What value of T/C has been reported for the following molecule? CC(C)=NOC(C)C(=O)O (centres undefined)
## Result 114 % of control

* * *

Test system: L1210 leukemia ip in BDF1 mice, survival T/C
Test: NCI In Vivo Anticancer Drug Screen. Data for tumor model L1210 Leukemia (intraperitoneal) in B6D2F1 (BDF1) mice
Settings: endpoint: mean survival time; dose: 400.0 mg/kg/injection; schedule: Q04DX002 (ip); vehicle: saline; higher = longer survival
Toxic doses and inconclusive results are not listed.
READOUT_KIND: T/C

## Task What value of T/C has been reported for the following compound? "C/C=C/C=C/COC(=O)CCCCCC"
## Result 107 % of control

## Task What value of T/C has been reported for the following compound? CO/N=C1\C(C)(C)C(C)(C)C(C)(C)C1(C)SS(=O)(=O)O (configuration not stated)
## Result 107 % of control

## Task What value of T/C has been reported for the following compound? "ClC12CCC(CC1)C2"
## Result 93 % of control

## Task What value of T/C has been reported for the following compound? CCC1(c2ccccc2)OC1C(=O)OCC(C)C (configuration not stated)
## Result 101 % of control

## Task What value of T/C has been reported for the following compound? "Cc1ccc(S(=O)(=O)OC23CCC(C)(CC2)C2(C3)OCCO2)cc1"
## Result 98 % of control

## Task What value of T/C has been reported for the following compound? CC1(C)OCC(C2OC(N)C3OC(C)(C)OC32)O1 (configuration not stated)
## Result 103 % of control

## Task What value of T/C has been reported for the following compound? NCC1OCOC2C(C(=O)O)OCOC12 (configuration not stated)
## Result 96 % of control

## Task What value of T/C has been reported for the following compound? "COc1cc(C(=O)NNS(=O)(=O)c2ccccc2)cc(OCc2ccccc2)c1OC"
## Result 95 % of control

## Task What value of T/C has been reported for the following compound? NC(CC(=O)O)c1cccs1 (configuration not stated)
## Result 102 % of control

## Task What value of T/C has been reported for the following compound? "O=C1OC(c2cccc([N+](=O)[O-])c2)=N/C1=C\c1ccc(O)cc1"
## Result 101 % of control

## Task What value of T/C has been reported for the following compound? CC(C)=NOC(CC(=O)O)C(=O)O (configuration not stated)
## Result 96 % of control

## Task What value of T/C has been reported for the following compound? "O=C1CCCC/C1=C\Sc1ccccc1"
## Result 88 % of control
